Sourced from ChEMBL document CHEMBL3400110

Target: Voltage-gated inwardly rectifying potassium channel KCNH2 (Homo sapiens, UniProt Q12809)
Sequence (Q12809 whole entry): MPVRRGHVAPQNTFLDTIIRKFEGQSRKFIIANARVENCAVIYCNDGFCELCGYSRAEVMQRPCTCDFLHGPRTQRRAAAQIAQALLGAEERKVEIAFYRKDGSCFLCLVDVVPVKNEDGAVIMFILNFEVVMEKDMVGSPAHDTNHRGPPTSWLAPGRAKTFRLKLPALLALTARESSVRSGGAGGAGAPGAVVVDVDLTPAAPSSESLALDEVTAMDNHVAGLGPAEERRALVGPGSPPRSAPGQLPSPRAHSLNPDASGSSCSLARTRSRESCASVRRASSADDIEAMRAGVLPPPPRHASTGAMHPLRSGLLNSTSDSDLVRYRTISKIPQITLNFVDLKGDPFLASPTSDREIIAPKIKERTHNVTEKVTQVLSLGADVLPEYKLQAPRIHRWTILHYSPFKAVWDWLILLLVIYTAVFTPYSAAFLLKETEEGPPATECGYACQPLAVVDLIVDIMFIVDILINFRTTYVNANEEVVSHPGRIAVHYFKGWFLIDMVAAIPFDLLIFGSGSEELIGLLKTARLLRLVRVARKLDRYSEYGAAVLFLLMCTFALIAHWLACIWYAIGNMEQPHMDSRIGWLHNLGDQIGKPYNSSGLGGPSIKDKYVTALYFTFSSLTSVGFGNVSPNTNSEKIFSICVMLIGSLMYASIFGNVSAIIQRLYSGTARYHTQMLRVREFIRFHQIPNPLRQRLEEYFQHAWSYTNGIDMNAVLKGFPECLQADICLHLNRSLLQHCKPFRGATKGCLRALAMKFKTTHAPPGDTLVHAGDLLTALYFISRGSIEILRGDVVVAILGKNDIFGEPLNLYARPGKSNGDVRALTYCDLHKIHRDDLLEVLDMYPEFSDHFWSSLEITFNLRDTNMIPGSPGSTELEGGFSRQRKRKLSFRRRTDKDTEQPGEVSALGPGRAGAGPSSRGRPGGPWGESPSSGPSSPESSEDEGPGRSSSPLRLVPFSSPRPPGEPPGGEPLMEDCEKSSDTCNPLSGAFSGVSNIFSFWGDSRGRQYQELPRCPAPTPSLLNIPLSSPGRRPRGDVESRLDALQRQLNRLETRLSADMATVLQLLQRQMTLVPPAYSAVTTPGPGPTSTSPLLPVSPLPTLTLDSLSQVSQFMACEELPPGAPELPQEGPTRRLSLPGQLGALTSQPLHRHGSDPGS
MEASUREMENT_KIND: pIC50
Convention used: pIC50 is expressed as -log10 of the molar concentration.

Lookup: Sample "CC(C)[C@]1(C)CC(=O)N(Cc2cc(F)cc(C(=O)N[C@@H](C)c3ccccc3)c2)C(=N)N1" — what was its pIC50?
Found: 5.05

----------
Assay: AUC (0 to 6 hrs) in rat at 10 mg/kg, po
Format: ADME, organism-based
Set-up: time < 6 hr, dose 10 mg/kg, route oral
Conditions: plasma
MEASUREMENT_KIND: AUC(0-t) at 6 h (µM·h)
Please state the figure in µM·h; there is no need to write the unit.

Lookup: Sample "CC(C)[C@]1(C)CC(=O)N(Cc2cc(F)cc(C(=O)N[C@@H](C)c3ccccc3)c2)C(=N)N1" — what was its AUC(0-t) at 6 h?
Found: 6.52

Lookup: Sample "CC(C)[C@]1(C)CC(=O)N(Cc2cccc(N3C[C@@H](c4ccccc4)CC3=O)c2)C(=N)N1" — what was its AUC(0-t) at 6 h?
Found: 2.04

Lookup: Sample "CC(C)[C@]1(C)CC(=O)N(Cc2cccc(C(=O)NCc3ccccc3)c2)C(=N)N1" — what was its AUC(0-t) at 6 h?
Found: 0.031

Lookup: Sample "CC(C)[C@]1(C)CC(=O)N(Cc2ccnc(N3C[C@@H](c4ccccc4)CC3=O)c2)C(=N)N1" — what was its AUC(0-t) at 6 h?
Found: 2.44

Lookup: Sample "C[C@@]1(c2ccc3sccc3c2)CC(=O)N(Cc2cccc(C(=O)NCc3ccccc3)c2)C(=N)N1" — what was its AUC(0-t) at 6 h?
Found: 0.049

Lookup: Sample "CC(C)[C@]1(C)CC(=O)N(Cc2ccnc(N3CC[C@H](c4ccccc4)C3)c2)C(=N)N1" — what was its AUC(0-t) at 6 h?
Found: 0.595

Lookup: Sample "CC(C)[C@]1(C)CC(=O)N(Cc2cccc(C(=O)N[C@H](C)c3ccccc3)c2)C(=N)N1" — what was its AUC(0-t) at 6 h?
Found: 0.173

Lookup: Sample "CC(C)[C@]1(C)CC(=O)N(Cc2cccc(C(=O)N[C@@H](C)c3ccccc3)c2)C(=N)N1" — what was its AUC(0-t) at 6 h?
Found: 0.405

Lookup: Sample "CC(C)[C@]1(C)CC(=O)N(Cc2cc(F)cc(N3C[C@@H](c4ccccc4)CC3=O)c2)C(=N)N1" — what was its AUC(0-t) at 6 h?
Found: 2.25

----------
Biological target: Beta-secretase 2 (Homo sapiens, UniProt Q9Y5Z0)
Sequence (Q9Y5Z0 whole entry): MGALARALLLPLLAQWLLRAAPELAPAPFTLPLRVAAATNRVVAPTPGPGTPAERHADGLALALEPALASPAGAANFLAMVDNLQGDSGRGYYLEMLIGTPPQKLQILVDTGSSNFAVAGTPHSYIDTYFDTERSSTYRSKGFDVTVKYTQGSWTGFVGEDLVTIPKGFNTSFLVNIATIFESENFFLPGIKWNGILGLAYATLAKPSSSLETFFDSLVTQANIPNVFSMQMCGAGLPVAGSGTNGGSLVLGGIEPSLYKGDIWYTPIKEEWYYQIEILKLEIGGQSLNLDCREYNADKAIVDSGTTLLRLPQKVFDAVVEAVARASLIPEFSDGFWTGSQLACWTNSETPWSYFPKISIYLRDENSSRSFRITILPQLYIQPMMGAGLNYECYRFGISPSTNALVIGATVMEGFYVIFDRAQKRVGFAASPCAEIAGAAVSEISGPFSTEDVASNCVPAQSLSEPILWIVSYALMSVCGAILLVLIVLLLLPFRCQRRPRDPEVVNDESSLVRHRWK
MEASUREMENT_KIND: Ki (nM)
Please state the figure in nM; there is no need to write the unit.

Lookup: GET /values?readout=Ki&system=Beta-secretase 2 (Homo sapiens, UniProt Q9Y5Z0)&item= "CC(C)[C@]1(C)CC(=O)N(Cc2cc(F)cc(C(=O)N[C@@H](C)c3ccccc3)c2)C(=N)N1"
Found: 480

----------
Target: Beta-secretase 1 (Homo sapiens, UniProt P56817)
Sequence (P56817 whole entry): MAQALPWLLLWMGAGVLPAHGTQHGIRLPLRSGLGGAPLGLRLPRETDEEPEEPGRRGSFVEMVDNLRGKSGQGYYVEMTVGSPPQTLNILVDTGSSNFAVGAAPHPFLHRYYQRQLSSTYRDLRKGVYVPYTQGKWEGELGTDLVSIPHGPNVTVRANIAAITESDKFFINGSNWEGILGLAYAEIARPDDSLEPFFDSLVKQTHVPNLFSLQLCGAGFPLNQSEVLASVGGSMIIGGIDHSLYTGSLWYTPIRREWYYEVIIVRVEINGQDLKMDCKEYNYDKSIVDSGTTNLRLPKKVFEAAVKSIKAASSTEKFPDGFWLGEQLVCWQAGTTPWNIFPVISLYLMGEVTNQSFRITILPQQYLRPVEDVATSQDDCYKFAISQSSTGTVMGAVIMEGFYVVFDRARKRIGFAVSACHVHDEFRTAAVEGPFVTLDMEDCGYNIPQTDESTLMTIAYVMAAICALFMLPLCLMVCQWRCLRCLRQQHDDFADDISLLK
Experiment: Inhibition of BACE1 (unknown origin)
MEASUREMENT_KIND: Ki

Lookup: Sample "CC(C)[C@]1(C)CC(=O)N(Cc2cccc(C(=O)NCc3ccccc3)c2)C(=N)N1" — what was its Ki?
Found: > 10 µM

Lookup: Sample "CC(C)[C@]1(C)CC(=O)N(Cc2cc(F)cc(C(=O)N[C@@H](C)c3ccccc3)c2)C(=N)N1" — what was its Ki?
Found: > 10 µM

----------
Assay: AUC in dog at 3 mg/kg, po
Type: ADME, organism-based, Canis lupus familiaris
Parameters: dose 3 mg/kg, route oral
Settings: plasma
MEASUREMENT_KIND: AUC (µM·h)
Please state the figure in µM·h; there is no need to write the unit.

Lookup: Sample "CC(C)[C@]1(C)CC(=O)N(Cc2cc(F)cc(C(=O)N[C@@H](C)c3ccccc3)c2)C(=N)N1" — what was its AUC?
Found: 3

----------
Assay: Inhibition of pepsin (unknown origin)
Parameters: species or system Homo sapiens
pKi: −log10 of the molar value.
MEASUREMENT_KIND: pKi

Lookup: Sample "CC(C)[C@]1(C)CC(=O)N(Cc2cc(F)cc(C(=O)N[C@@H](C)c3ccccc3)c2)C(=N)N1" — what was its pKi?
Found: < 5.00

----------
Target: hERG (KCNH2) (Homo sapiens, UniProt Q12809)
Sequence (Q12809 whole entry): as the sequence (Q12809 whole entry) above
Experiment: Inhibition of human ERG at 10 uM
Please respond with reported inhibition at 10 µM for every item in the list.

Lookup: Sample CC(C)[C@]1(C)CC(=O)N(Cc2cccc(N3CC(c4cccc(Cl)c4)CC3=O)c2)C(=N)N1 (some centres undefined) — what was its inhibition at 10 µM?
Found: 92%

Lookup: Sample "CC(C)[C@]1(C)CC(=O)N(Cc2cc(F)cc(N3C[C@@H](c4ccccc4)CC3=O)c2)C(=N)N1" — what was its inhibition at 10 µM?
Found: 85%

Lookup: Sample "CC(C)[C@]1(C)CC(=O)N(Cc2ccnc(N3C[C@@H](c4ccccc4)CC3=O)c2)C(=N)N1" — what was its inhibition at 10 µM?
Found: 77%

Lookup: Sample "CC(C)[C@]1(C)CC(=O)N(Cc2ccnc(N3CC[C@H](c4ccccc4)C3)c2)C(=N)N1" — what was its inhibition at 10 µM?
Found: 72%

----------
Target: Renin (Homo sapiens)
Sequence (P00797 whole entry): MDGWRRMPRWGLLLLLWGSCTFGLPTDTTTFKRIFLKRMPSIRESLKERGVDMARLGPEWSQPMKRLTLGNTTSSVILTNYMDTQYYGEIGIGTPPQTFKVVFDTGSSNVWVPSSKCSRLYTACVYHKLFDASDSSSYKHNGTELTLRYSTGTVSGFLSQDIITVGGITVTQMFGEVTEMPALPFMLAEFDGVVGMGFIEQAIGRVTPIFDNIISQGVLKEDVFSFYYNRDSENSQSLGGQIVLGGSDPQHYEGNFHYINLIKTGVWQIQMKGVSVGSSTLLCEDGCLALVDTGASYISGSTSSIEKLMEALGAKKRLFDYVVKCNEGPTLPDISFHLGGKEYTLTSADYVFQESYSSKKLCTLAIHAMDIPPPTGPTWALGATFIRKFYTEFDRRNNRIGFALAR
Please respond with reported Ki for every item in the list.
Please state the figure in µM; there is no need to write the unit.

Lookup: Sample "CC(C)[C@]1(C)CC(=O)N(Cc2ccnc(N3C[C@@H](c4ccccc4)CC3=O)c2)C(=N)N1" — what was its Ki?
Found: 0.006

Lookup: Sample "CC(C)[C@]1(C)CC(=O)N(Cc2cccc(C(=O)N[C@@H](C)c3ccccc3)c2)C(=N)N1" — what was its Ki?
Found: 0.0022

Lookup: Sample "CC(C)[C@]1(C)CC(=O)N(Cc2ccnc(N3CC[C@H](c4ccccc4)C3)c2)C(=N)N1" — what was its Ki?
Found: 0.015

Lookup: Sample "CC(C)[C@]1(C)CC(=O)N(Cc2cccc(N3C[C@H](c4ccccc4)CC3=O)c2)C(=N)N1" — what was its Ki?
Found: 0.42

Lookup: Sample "CC(C)[C@]1(C)CC(=O)N(Cc2cccc(C(=O)NCc3ccccc3)c2)C(=N)N1" — what was its Ki?
Found: 0.056

----------
Assay: Protein binding in rat plasma
Assay type: ADME, cell-free
Details: read-out: PPB (converted)
MEASUREMENT_KIND: fraction unbound

Lookup: Sample "CC(C)[C@]1(C)CC(=O)N(Cc2cc(F)cc(C(=O)N[C@@H](C)c3ccccc3)c2)C(=N)N1" — what was its fraction unbound?
Found: 0.059

----------
Assay: Fraction unbound in rat plasma
Format: ADME, cell-free
MEASUREMENT_KIND: fraction unbound
I only need the number, thanks.

Lookup: Sample "CC(C)[C@]1(C)CC(=O)N(Cc2cc(F)cc(C(=O)N[C@@H](C)c3ccccc3)c2)C(=N)N1" — what was its fraction unbound?
Found: 0.059
